# procedure_summary: amyloid nucleation score (Sup35N fusion, yeast selection) (log enrichment); library NNK3; higher = more nucleation; inactive = no reads after selection;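 further: zero at mode of non-aggregating sequences after 7 days selection at 30°C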
recorded_endpoint: amyloid nucleation score

TRNSYCTFRGGIIFCL :: 1.25
FIRMVGRLKKWRVS :: inactive
LVIVFCMVFLTFIF :: 0.545
SIIGASLLNYF :: inactive

amyloid nucleation score reported for this substance NLRWSLIFMFGDCWGACGCG : 0.476

amyloid nucleation score reported for this substance AICSPTLLDYYFLFKVLPGS : inactive

amyloid nucleation score reported for this substance NCDIPFFTRSEIVFLFVDFI : inactive

amyloid nucleation score reported for this substance FCDAKYLRLRSCALISMPSV : inactive

amyloid nucleation score reported for this substance SIRVSVMFNIRKKVFDLQRF : inactive

amyloid nucleation score reported for this substance LNRAPTAQLSGDCRVGVQAT : inactive

amyloid nucleation score reported for this substance VGSQEANLAVGI : inactive

amyloid nucleation score reported for this substance SFRSAVRCTS : inactive

amyloid nucleation score reported for this substance MDITWIKVVHNIHQTVRSKF : 1

amyloid nucleation score reported for this substance ILVCCISVETTHDNGPEVVG : 2.22

====

# procedure_summary: amyloid nucleation score (Sup35N fusion, yeast selection) (log enrichment); library NNK3; higher = more nucleation; inactive = no reads after selection
recorded_endpoint: amyloid nucleation score

Here are 5 substances together with their reported answers.
TIFGCRSSQCSMFVLVFDFY :: 1.51
LFFYRMYDGTWKGDLYIASE :: inactive
PTLCNRGLACDEHSHR :: inactive
CSVFPQVRLCPRSSANQELD :: inactive
PWMHLYRHAMFISAHLRYSC :: inactive

amyloid nucleation score reported for this substance KLLSRYSTACMLRINLIRRY : inactive

amyloid nucleation score reported for this substance PRDYMINNLLVFQSRG : inactive

amyloid nucleation score reported for this substance DILFTSIS : 0.257

amyloid nucleation score reported for this substance SSNDPQHHVDAGEADQRSRV : inactive

amyloid nucleation score reported for this substance SSMYISAPSLCYLDFGLEKW : inactive

amyloid nucleation score reported for this substance FPRVTVPLVFSSIQESTSSE : inactive

amyloid nucleation score reported for this substance RYTWTTDYNVM : inactive

amyloid nucleation score reported for this substance CVADHLSCISTRGNCCYMSG : 0.473

amyloid nucleation score reported for this substance HISYNHIGEYVKKSDFECSN : inactive

amyloid nucleation score reported for this substance TTQILAL : inactive

amyloid nucleation score reported for this substance YNFWMRQVVMRVTVCGNDEA : inactive

amyloid nucleation score reported for this substance LLAMPNQRWGTTLLYVQDWF : inactive

====

# procedure_summary: amyloid nucleation score (Sup35N fusion, yeast selection) (log enrichment); library NNK1; higher = more nucleation; inactive = no reads after selection
Measured amyloid nucleation score, listed per entry.
Lab note: write the figure by itself, no unit.

NCNIMNFIDTCLCGAMYYFR :: 4.12
TAVGSRGFPRNHLRPKNTSG :: -0.309
SYHPLHVCCSSVFRELVIRD :: 2.11
RCYYLGHVHRICGRWGWGPR :: 0.37

amyloid nucleation score reported for this substance IARAVSSESASVWVKDT : -1.62

====

# procedure_summary: amyloid nucleation score (Sup35N fusion, yeast selection) (log enrichment); library NNK1; higher = more nucleation; inactive = no reads after selection
Measured amyloid nucleation score, listed per entry.
Lab note: write the figure by itself, no unit.

Here are 2 substances together with their reported answers.
LDNWYISRFCCDVMTDANVD :: -0.322
SVVLQTHFAFSSFELKSKVA :: -0.54

amyloid nucleation score reported for this substance KSDLLNMRWVGYWFIVSSMR : 0.099

amyloid nucleation score reported for this substance SIKCGVVHLNRMVRAQSKLC : 0.136

amyloid nucleation score reported for this substance SAVQGCNGRCCYFGRGWWSG : 3.4

amyloid nucleation score reported for this substance MCTLDLD : 0.824

amyloid nucleation score reported for this substance ISGMRGFILLGRRVFTKVSS : -0.277

amyloid nucleation score reported for this substance DYSCARYEPGNMVLLC : -0.813

amyloid nucleation score reported for this substance FVPLTVN : -0.068

amyloid nucleation score reported for this substance AVVLLLNRTD : 0.282

amyloid nucleation score reported for this substance FAFRRSI : 0.332

amyloid nucleation score reported for this substance FFCERVLPVRVVC : 1.06

amyloid nucleation score reported for this substance DLIMFD : -0.029

amyloid nucleation score reported for this substance MSVLALVPGYLSA : -0.088

amyloid nucleation score reported for this substance ILTFQSCRRFACKAFMFRRR : 2.07

amyloid nucleation score reported for this substance FCWLSMRAIRISSS : 0.531

amyloid nucleation score reported for this substance ILICQCLMLACGRVFSFYLV : -0.328

amyloid nucleation score reported for this substance SNLLGSMFLLCHQIKHRPEI : -0.764

amyloid nucleation score reported for this substance IVWYELIESNVLKSKGCVVN : -0.322

====

# procedure_summary: amyloid nucleation score (Sup35N fusion, yeast selection) (log enrichment); library NNK2; higher = more nucleation; inactive = no reads after selection
recorded_endpoint: amyloid nucleation score
Lab note: write the figure by itself, no unit.

Here are 5 substances together with their reported answers.
NDSSLCSSVRPIRMREEFDK :: -0.099
TEGHVNSQIRWNLVY :: -0.348
IHLWICSISYNAVSIRFTSY :: 1.42
YKLRSQ :: -0.184
FSSEGLRIRKIRQGISISLC :: -1.21

amyloid nucleation score reported for this substance IKSRICISSYNNDMCGRFVL : -1.86

amyloid nucleation score reported for this substance SRSSHLM : 0.073

amyloid nucleation score reported for this substance VLPYSRVSTS : 0.007

amyloid nucleation score reported for this substance SKCVWIKDQNFFQVDTNESI : 1.73

====

# procedure_summary: amyloid nucleation score (Sup35N fusion, yeast selection) (log enrichment); library NNK2; higher = more nucleation; inactive = no reads after selection
Rule: amyloid nucleation score under 0.1 gives rule not met, otherwise rule met.

Illustrative cases are given below, each with its answer.
LLRDSVY :: rule not met
NECRVDFE :: rule not met

# bool: amyloid nucleation score of STNRWQHIL >= 0.1 rule not met

# bool: amyloid nucleation score of CVLSKEI >= 0.1 rule met

====

# procedure_summary: amyloid nucleation score (Sup35N fusion, yeast selection) (log enrichment); library NNK1; higher = more nucleation; inactive = no reads after selection
recorded_endpoint: amyloid nucleation score
Lab note: write the figure by itself, no unit.

MWTFWFSVCTYLFL :: 2.37
SLRWSQSPFYFVTSIGRQGG :: 0.585

amyloid nucleation score reported for this substance GRGVLSSPSALGRFSLTEGM : -0.444

amyloid nucleation score reported for this substance VFSKLDTLFTVSMTLRPMWP : 0.566

amyloid nucleation score reported for this substance TLRYKNT : 0.371

amyloid nucleation score reported for this substance VCNQWGDHA : -1.08

amyloid nucleation score reported for this substance PCSSVLLEHWSRYASRCEMV : 1.28

amyloid nucleation score reported for this substance SSYRNWYRRSGDQLYYLEP : 0.876

amyloid nucleation score reported for this substance GSPVCTRRRPASLPPLRQVH : 0.208

amyloid nucleation score reported for this substance RCQNRH : -0.221

amyloid nucleation score reported for this substance DCLWPLVSMFLVPLRASKVR : 0.128

amyloid nucleation score reported for this substance KSLQTETFTKTAATQKSELA : -0.3

amyloid nucleation score reported for this substance WMKVLVPFRMEAASGSLFCS : -1.22

amyloid nucleation score reported for this substance VLYGADDVLVRVSTCVYMGG : -0.136

amyloid nucleation score reported for this substance LFVRKVIYVDR : 0.379

====

# procedure_summary: amyloid nucleation score (Sup35N fusion, yeast selection) (log enrichment); library NNK1; higher = more nucleation; inactive = no reads after selection
Please map values of amyloid nucleation score to classes as shown: low interval: < -0.2; middle interval: ≥ -0.2 and < 1; high interval: ≥ 1

Illustrative cases are given below, each with its answer.
IITCRSASETMWFSCFDGLA :: high interval
HSNMVNS :: low interval
LIRNINHWASYRFFCNCSSW :: high interval
SNKSSSDIDCVYLENCSTSG :: high interval
VAAFEIMHLLISCDNRCRFQ :: middle interval
DCAKTANDSDVLFFDTSGAR :: middle interval
FFLMQYILYYKKQSDMFVSL :: low interval
SYYMYLN :: middle interval

Which bin should I file YAPLLLSWAYFGV under? high interval

Which bin should I file YECKVYKSK under? middle interval

====

# procedure_summary: amyloid nucleation score (Sup35N fusion, yeast selection) (log enrichment); library NNK2; higher = more nucleation; inactive = no reads after selection
recorded_endpoint: amyloid nucleation score

Here are 10 substances together with their reported answers.
VKWTTVVD :: 0.963
CCYLFRSLRLVGSQIFSQSL :: 0.35
MFVQCICRGIHIIVPGSVRS :: 3.88
NCVHRDNWE :: inactive
QGGMMWGLLSYCEVLDDSDV :: -0.08
AKNVKKT :: -0.575
FSGLSCY :: inactive
NSWWTVLFRFYKALSLPRAR :: -0.839
PTLHMGMPN :: -0.013
SSFHWPIKSRDAGVAWSRGG :: 2.07

amyloid nucleation score reported for this substance TNSSRISLNLGVLRGAQKDS : -1.08

amyloid nucleation score reported for this substance WLMTYFNISSGFKSVTWVES : 3.69

amyloid nucleation score reported for this substance LLCFHTHLRKAMGVTINSIS : -1.19
